Provide the reported LC50 of each item.
Test system: M14
Test: Growth inhibition of human M14 cells incubated for 48 hrs by sulforhodamine B assay
Assay type: functional
Conditions: M14, 48 h

Enquiry: Name the reported LC50 value associated with the molecule C/C(=C\C(=O)O[C@H]1[C@@H]2[C@H](C)CC[C@H]2[C@]2(C)O[C@@]1(C(C)C)C[C@H]2NC(=O)CO)c1ccccc1
Return: > 100 µM

Enquiry: Name the reported LC50 value associated with the molecule CC(C)[C@@]12C[C@@H](NC(=O)CO)[C@@](C)(O1)[C@@H]1CC[C@@H](C)[C@H]1[C@@H]2OC(=O)/C=C/c1ccccc1
Return: > 50.1 µM

Enquiry: Name the reported LC50 value associated with the molecule CC(C)[C@@]12C[C@@H](NC(=O)CO)[C@@](C)(O1)[C@@H]1CC[C@@H](C)[C@H]1[C@@H]2OC(=O)c1ccc2ccccc2c1
Return: 58.9 µM

Enquiry: Name the reported LC50 value associated with the molecule CC(C)[C@@]12C[C@@H](NC(=O)CO)[C@@](C)(O1)[C@@H]1CC[C@@H](C)[C@H]1[C@@H]2OC(=O)/C=C/C1CCCCC1
Return: > 44.7 µM
